- Tested on: SH-SY5Y cells
- protocol: Nuclear count from microscopy images (cellular growth and toxicity); note: reference of the scale not given here
- test conditions: PKIS2 primary screening
property: Nuclear Count

Could you tell me which Nuclear Count is on file for FC(F)(F)c1ccccc1-c1cc(-c2c[nH]nc2-c2ccccn2)ccn1 [UNC10225184A] ?
131.35

Okay, and CNc1nccc(-c2c(-c3ccc(F)cc3)ncn2C2CCN(C)CC2)n1 [UNC10225274A] ?
122.34

Okay, and Nc1cccc(-c2ccc3c(N)n[nH]c3c2)c1 [GSK2193613] ?
112.12

Okay, and CNc1nccc(-c2ccc3c(N)n[nH]c3c2)n1 [GSK2206003] ?
71.44

Okay, and O=C(Nc1ccc2c(c1)OCO2)NC1CCN(c2ccnc(Nc3ccc(F)cc3)n2)C1 (centres unmarked) [GSK1379724] ?
89.10

Okay, and COc1cc2ncn(-c3cc(OCC4CCCO4)c(C(N)=O)s3)c2cc1OC (centres unmarked) [UNC10225372A] ?
102.24

Okay, and CCC(CC)(CC)n1cnc2c(N)ncnc21 [UNC10225302A] ?
100.18

Okay, and COc1cc2ncn(-c3cc(OCC4CCCCC4)c(C(N)=O)s3)c2cc1OC [UNC10225496A] ?
113.87

Okay, and Nc1nc(-c2ccccn2)c(-c2ccnc3ccccc23)s1 [UNC10225201A] ?
144.30

Okay, and COc1ccc(Nc2nccc(-c3cccc(NC(=O)c4cc5cc(F)ccc5[nH]4)c3)n2)cc1 [GSK1229782] ?
89.95

Okay, and CC(C)(C)c1ccc(-n2cnc3c(N)ncnc32)cc1 [UNC10225367A] ?
71.05

Okay, and CCn1c(-c2ccccc2)nc2cnccc21 [UNC10225407A] ?
99.61

Okay, and Cc1ccn2nc(-c3ccc(F)cc3)c(-c3ccncc3)c2c1.Cl [UNC10224989A] ?
114.75

Okay, and Cc1c(Cn2ccn3c(=O)cc(N4CCOCC4)nc23)cccc1C(F)(F)F [UNC10243861A] ?
146.89

Okay, and COc1ccc(COc2cc(-n3cnc4ccccc43)sc2C(N)=O)cc1 [UNC10225127A] ?
109.00

Okay, and Cc1ccc(C)c(NC(=O)NC2CCN(c3ccnc(Nc4ccc(F)cc4)n3)C2)c1 (centres unmarked) [GSK1379720] ?
92.38

Okay, and CN(c1ccc(NC(=O)Nc2cccc(Cl)c2)cc1)c1ccnc(N)n1 [GW830707] ?
115.77

Okay, and Nc1nccc2scc(-c3ccc4c(c3)CCN4C(=O)Cc3cc(F)ccc3F)c12 [UNC10225494A] ?
97.20

Okay, and O=C(Nc1ccccc1F)NC1CCN(c2ccnc(Nc3ccc(F)cc3)n2)C1 (centres unmarked) [GSK1379722] ?
114.62

Okay, and NC(=O)c1cc(-c2ccccc2)cc2c(C3CCNCC3)c[nH]c12 [UNC10225015A] ?
93.78

Okay, and COc1ccc(-c2nc3n(c2-c2ccncc2)CCC3)cc1 [UNC10225334A] ?
82.13

Okay, and Cc1cc(Nc2nc(-c3cccc(C)n3)nc3ccccc23)ccn1 [GW872411] ?
94.17

Okay, and Clc1ccc(-c2nn3ncccc3c2-c2ccnc(Nc3ccc4c(c3)OCCO4)n2)cc1 [UNC10225358A] ?
125.14

Okay, and CS(=O)(=O)CCNCc1nc(-c2ccc3ncnc(Nc4ccc(OCc5cccc(F)c5)c(Cl)c4)c3c2)cs1.Cl [UNC10225091A] ?
114.33

Origin of the recorded values: paper PMC9851200
